test: Oral bioavailability in rat at 5 mg/kg; format: ADME, organism-based; settings: in vivo
property name: bioavailability (%)
Give the value, in units of %, as a plain number.

[in] So what does the record say about bioavailability for CCN1CCN(c2ccc(Nc3ncc4scc(-c5cccc(NS(C)(=O)=O)c5)c4n3)cc2)CC1 ?
[out] 37.1

* * *

target: CYP3A4 (Homo sapiens, UniProt P08684); test: Inhibition of CYP3A4 (unknown origin) at 10 uM relative to control; type: ADME
Sequence (P08684 whole entry): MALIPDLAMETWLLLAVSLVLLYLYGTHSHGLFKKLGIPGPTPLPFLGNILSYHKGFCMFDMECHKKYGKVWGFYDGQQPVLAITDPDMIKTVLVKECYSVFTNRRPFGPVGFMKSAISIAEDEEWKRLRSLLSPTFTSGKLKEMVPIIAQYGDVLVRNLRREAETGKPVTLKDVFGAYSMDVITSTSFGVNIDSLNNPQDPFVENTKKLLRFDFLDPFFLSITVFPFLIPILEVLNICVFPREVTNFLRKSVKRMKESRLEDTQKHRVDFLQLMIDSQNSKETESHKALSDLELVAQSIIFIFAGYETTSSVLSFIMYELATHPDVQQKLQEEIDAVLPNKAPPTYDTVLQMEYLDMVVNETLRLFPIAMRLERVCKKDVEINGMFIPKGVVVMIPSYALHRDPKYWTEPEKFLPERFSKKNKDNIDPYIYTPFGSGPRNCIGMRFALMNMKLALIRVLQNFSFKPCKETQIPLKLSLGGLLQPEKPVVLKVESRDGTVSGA
In this section, each of the compounds is paired with its reported inhibition at 10 µM.
Give the value, in units of %, as a plain number.

The following compounds have reported results that may help.
[in] So what does the record say about inhibition at 10 µM for CCN1CCN(c2ccc(Nc3ncc4scc(-c5cccc(OC)c5)c4n3)cc2)CC1 ?
[out] 72.1

[in] So what does the record say about inhibition at 10 µM for CCN1CCN(c2ccc(Nc3ncc4scc(-c5cccc(NS(C)(=O)=O)c5)c4n3)cc2)CC1 ?
[out] 71.9

[in] So what does the record say about inhibition at 10 µM for CN(c1ncccc1CNc1nc(Nc2ccc3c(c2)CC(=O)N3)ncc1C(F)(F)F)S(C)(=O)=O [PF-00562271] ?
[out] 47.2

Further cases:
[in] So what does the record say about inhibition at 10 µM for CCN1CCN(c2ccc(Nc3ncc4scc(-c5ccc6cc[nH]c6c5)c4n3)cc2)CC1 ?
[out] 76

[in] So what does the record say about inhibition at 10 µM for CCN1CCN(c2ccc(Nc3ncc4scc(-c5cccc([N+](=O)[O-])c5)c4n3)cc2)CC1 ?
[out] 55.1

[in] So what does the record say about inhibition at 10 µM for CNC(=O)c1ccccc1Nc1nc(Nc2ccc(N3CCOCC3)cc2OC)ncc1Cl ?
[out] 71.2

[in] So what does the record say about inhibition at 10 µM for CCN1CCN(c2ccc(Nc3ncc4scc(-c5cccc(N6CCCS6(=O)=O)c5)c4n3)cc2)CC1 ?
[out] 59.6

[in] So what does the record say about inhibition at 10 µM for CS(=O)(=O)Nc1cccc(-c2csc3cnc(Nc4ccc(N5CCNCC5)cc4)nc23)c1 ?
[out] 57.3

[in] So what does the record say about inhibition at 10 µM for CCN1CCN(c2ccc(Nc3ncc4scc(-c5ccccc5)c4n3)cc2)CC1 ?
[out] 81

[in] So what does the record say about inhibition at 10 µM for CS(=O)(=O)Nc1cccc(-c2csc3cnc(Nc4ccc(N5CCC(O)CC5)cc4)nc23)c1 ?
[out] 57.9
